A collection of compounds and their measured DC50
Biological target: p300 (Homo sapiens)
Construct: host or cells: A549 P300 HiBit cells
Sequence (Q09472 whole entry): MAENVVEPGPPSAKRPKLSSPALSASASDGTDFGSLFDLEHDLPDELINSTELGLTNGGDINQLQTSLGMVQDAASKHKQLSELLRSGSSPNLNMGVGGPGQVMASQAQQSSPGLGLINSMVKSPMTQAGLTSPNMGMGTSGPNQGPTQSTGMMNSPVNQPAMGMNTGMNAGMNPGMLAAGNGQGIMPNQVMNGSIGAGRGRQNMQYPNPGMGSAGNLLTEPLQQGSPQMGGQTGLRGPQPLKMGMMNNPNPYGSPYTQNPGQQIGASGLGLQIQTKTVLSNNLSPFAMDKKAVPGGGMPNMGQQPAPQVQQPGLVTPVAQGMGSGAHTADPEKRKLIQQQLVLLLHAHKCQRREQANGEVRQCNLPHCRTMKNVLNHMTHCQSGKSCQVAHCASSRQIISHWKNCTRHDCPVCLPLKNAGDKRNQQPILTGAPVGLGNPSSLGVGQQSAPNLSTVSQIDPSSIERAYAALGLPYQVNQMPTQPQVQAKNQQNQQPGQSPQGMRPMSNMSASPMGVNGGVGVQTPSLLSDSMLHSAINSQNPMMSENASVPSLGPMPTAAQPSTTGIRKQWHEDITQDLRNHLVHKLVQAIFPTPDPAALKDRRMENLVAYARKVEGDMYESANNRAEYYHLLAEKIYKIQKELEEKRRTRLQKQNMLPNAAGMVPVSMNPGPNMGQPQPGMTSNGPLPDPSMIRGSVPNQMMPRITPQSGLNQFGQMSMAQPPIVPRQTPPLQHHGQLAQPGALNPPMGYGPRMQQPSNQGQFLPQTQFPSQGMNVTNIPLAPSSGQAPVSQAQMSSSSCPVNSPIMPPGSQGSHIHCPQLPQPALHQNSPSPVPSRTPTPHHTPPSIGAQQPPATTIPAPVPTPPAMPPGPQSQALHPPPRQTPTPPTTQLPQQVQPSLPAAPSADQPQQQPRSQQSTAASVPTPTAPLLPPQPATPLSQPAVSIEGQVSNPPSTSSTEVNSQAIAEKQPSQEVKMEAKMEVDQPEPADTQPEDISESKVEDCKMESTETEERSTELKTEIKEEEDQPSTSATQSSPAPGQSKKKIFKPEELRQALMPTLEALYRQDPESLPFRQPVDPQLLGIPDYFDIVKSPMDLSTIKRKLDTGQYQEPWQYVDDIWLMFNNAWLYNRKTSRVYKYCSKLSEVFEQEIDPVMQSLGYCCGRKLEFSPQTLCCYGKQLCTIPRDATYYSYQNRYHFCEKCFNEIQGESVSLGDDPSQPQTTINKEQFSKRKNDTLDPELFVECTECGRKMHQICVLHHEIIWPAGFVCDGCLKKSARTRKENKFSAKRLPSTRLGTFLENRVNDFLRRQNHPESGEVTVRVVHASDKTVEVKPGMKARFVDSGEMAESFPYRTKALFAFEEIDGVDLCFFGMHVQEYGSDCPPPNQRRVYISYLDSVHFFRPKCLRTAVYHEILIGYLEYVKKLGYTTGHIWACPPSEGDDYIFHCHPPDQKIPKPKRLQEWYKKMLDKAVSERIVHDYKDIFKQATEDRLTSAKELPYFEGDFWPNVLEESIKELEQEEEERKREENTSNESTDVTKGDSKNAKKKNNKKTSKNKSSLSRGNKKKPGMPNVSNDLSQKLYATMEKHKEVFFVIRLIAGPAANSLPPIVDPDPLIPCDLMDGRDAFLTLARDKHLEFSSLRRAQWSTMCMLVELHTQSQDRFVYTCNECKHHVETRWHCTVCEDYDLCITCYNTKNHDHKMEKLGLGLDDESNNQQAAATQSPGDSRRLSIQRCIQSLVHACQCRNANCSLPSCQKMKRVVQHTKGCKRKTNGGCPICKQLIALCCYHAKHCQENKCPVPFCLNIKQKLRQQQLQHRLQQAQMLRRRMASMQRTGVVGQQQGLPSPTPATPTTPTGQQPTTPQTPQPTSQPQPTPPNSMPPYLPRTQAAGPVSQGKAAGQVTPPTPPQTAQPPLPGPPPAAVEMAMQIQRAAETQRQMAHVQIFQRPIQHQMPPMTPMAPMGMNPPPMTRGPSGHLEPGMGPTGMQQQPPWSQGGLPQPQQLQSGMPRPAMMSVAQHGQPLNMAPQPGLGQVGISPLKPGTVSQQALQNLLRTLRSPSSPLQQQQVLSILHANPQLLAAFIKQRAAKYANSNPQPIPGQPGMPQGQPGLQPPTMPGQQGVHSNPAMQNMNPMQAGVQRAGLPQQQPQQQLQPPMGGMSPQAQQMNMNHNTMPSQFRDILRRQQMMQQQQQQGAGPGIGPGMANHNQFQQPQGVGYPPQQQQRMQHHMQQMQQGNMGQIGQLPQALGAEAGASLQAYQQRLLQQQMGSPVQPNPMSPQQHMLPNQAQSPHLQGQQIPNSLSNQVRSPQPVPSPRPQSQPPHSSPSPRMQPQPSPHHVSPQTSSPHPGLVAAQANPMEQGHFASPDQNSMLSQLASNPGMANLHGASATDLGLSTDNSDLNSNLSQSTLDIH
Test: P300 degradation, HiBit technology in A549 P300 HiBit cells (2 h)
Format: cell-based
Conditions: A549 P300 HiBit cells, 2 hrs post treatment

CC(C)c1cc(-c2cccc3cc(-c4ccc(C(=O)NCC#Cc5ccc6c(CN(C)C)nn(C7CCC(=O)NC7=O)c6c5)nc4)ncc23)cc2c1n(C)c(=O)n2C (stereo not drawn)
1 to 9.9 nM
Cc1cc(-c2cnc(N(C)c3cc(C(C)C)c4c(c3)n(C)c(=O)n4C)cn2)cnc1C(=O)NCC#Cc1cccc(NC2CCC(=O)NC2=O)c1 (stereo not drawn)
10 to 99 nM
Cn1c(=O)n(C)c2cc(C3=CC(C)(C)Oc4cc(-c5ccc(C(=O)NCC#Cc6ccc7occ(C8CCC(=O)NC8=O)c7c6)nc5)ncc43)ccc21 (stereo not drawn)
1 to 9.9 nM
Cc1cc2c(N3CCCc4nc(-c5ccc(C(=O)NCC#Cc6ccc7occ(C8(C)CCC(=O)NC8=O)c7c6)nc5)ncc43)cc(C3CCOCC3)cc2n(C)c1=O (stereo not drawn)
> 1000 nM
Cc1cc(-c2ccc(Nc3cc(C(C)C)c4c(c3)n(C)c(=O)n4C)cn2)cnc1C(=O)NCC#Cc1ccc2occ(C3CCC(=O)NC3=O)c2c1 (stereo not drawn)
10 to 99 nM

# input Reported DC50, compound CC(C)c1cc(-c2cccc3cc(-c4ccc(C(=O)NCC#Cc5ccc6nnn(C7CCC(=O)NC7=O)c6c5)nc4)ncc23)cc2c1n(C)c(=O)n2C (stereo not drawn) : ____
# output < 1 nM

---

Molecular target: CBP (Homo sapiens, UniProt Q92793)
Construct: host or cells: A549 CBP HiBit cells
Sequence (Q92793 whole entry): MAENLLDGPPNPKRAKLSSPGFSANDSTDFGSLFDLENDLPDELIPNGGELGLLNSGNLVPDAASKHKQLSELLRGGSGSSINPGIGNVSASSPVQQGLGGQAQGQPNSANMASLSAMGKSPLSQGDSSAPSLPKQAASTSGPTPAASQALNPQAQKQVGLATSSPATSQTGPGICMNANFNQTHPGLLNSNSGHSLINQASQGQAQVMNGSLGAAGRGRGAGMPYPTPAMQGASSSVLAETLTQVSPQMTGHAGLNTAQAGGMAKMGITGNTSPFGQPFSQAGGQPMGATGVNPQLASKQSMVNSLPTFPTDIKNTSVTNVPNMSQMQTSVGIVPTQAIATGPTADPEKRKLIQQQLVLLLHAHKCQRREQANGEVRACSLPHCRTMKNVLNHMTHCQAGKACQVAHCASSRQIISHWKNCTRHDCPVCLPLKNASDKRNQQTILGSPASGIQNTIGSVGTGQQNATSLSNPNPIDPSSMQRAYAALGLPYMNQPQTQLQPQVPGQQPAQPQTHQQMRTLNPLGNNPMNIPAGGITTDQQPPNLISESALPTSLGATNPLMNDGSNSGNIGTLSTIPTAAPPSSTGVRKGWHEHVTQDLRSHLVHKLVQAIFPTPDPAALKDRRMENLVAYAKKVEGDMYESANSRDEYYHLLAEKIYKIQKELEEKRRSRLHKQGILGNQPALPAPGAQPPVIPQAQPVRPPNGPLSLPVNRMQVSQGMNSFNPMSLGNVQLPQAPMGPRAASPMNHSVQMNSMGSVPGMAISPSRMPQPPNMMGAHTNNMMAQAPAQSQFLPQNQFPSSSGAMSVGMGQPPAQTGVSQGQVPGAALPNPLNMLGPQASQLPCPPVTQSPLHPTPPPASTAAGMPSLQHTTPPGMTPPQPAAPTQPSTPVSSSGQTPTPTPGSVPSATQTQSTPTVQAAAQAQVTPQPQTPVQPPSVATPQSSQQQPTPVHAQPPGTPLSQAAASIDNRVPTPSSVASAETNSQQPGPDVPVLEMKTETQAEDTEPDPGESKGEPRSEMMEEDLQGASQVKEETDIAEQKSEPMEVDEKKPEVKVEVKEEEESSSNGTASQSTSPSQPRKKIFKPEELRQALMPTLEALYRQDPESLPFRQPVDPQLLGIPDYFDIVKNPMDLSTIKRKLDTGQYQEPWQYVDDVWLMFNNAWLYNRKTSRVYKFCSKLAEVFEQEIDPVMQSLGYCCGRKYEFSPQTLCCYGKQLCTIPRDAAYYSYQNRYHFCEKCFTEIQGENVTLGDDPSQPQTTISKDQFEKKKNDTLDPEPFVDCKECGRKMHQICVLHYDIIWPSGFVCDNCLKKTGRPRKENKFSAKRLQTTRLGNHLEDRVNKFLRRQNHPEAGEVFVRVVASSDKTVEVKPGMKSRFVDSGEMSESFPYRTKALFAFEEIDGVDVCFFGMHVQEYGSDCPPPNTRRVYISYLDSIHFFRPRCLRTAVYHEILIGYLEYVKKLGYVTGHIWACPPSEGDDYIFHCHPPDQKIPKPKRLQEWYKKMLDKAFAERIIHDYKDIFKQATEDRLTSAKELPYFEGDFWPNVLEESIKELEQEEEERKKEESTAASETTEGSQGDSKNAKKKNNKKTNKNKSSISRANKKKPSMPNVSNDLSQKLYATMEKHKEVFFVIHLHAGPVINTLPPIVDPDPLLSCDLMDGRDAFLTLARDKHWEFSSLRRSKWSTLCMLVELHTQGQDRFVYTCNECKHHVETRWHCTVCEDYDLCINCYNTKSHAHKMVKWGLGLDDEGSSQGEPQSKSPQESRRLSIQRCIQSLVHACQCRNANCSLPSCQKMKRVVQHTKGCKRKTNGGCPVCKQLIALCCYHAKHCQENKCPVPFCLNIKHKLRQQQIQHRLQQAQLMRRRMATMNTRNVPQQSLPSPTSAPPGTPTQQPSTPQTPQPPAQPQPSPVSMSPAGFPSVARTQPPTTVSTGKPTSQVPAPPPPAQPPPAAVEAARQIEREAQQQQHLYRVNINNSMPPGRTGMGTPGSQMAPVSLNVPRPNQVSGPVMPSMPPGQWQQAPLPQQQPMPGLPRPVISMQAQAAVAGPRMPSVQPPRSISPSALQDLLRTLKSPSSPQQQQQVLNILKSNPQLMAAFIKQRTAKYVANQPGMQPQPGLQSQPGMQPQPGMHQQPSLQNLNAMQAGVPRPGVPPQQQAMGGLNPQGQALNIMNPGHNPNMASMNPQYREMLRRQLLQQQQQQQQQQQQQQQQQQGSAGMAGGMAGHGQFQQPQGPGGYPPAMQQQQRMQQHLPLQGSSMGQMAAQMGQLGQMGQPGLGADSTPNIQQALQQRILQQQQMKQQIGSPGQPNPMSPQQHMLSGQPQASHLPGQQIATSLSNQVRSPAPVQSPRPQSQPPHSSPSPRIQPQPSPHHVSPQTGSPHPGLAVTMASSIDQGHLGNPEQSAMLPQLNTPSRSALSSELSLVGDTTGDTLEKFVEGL
Test: CBP degradation, HiBit technology in A549 CBP HiBit cells (24 h)
Format: cell-based
Conditions: 24 hrs post treatment
Reported DC50 is given for each of the following compounds.

Use these answered entries as a reference point.
Cc1cc2c(N3CCCc4nc(-c5ccc(C(=O)NCC#Cc6cc7c(C8CCC(=O)NC8=O)nccc7n6C)nc5)ncc43)cc(C3CCOCC3)cc2n(C)c1=O (stereo not drawn)
> 1000 nM
CC(C)c1cc(-c2cccc3cc(-c4ccc(C(=O)NCC#Cc5ccc6cnn(C7CCC(=O)NC7=O)c6c5F)nc4)ncc23)cc2c1n(C)c(=O)n2C (stereo not drawn)
10 to 99 nM
CCc1cc(-c2cccc3cc(-c4ccc(C(=O)NCC#Cc5cc(NC6CCC(=O)NC6=O)nn5C)nc4)ncc23)c2cc(C)c(=O)n(C)c2c1 (stereo not drawn)
> 1000 nM
Cc1cc2c(N3CCCc4nc(-c5ccc(C(=O)NCC#Cc6ccc7occ(C8CCC(=O)NC8=O)c7c6)nc5)ncc43)nc(N3CC(F)C3)cc2n(C)c1=O (stereo not drawn)
> 1000 nM
CC(C)c1cc(-c2cccc3cc(-c4ccc(C(=O)NCC#Cc5ccc6c(c5)c(C5CCC(=O)NC5=O)nn6C)nc4)ncc23)cc2c1n(C)c(=O)n2C (stereo not drawn)
10 to 99 nM

# input Suppose we examine the compound CC(C)c1cc(-c2cccc3cc(-c4ccc(C(=O)NCC#Cc5ccc6nnn(C7CCC(=O)NC7=O)c6c5)nc4)ncc23)cc2c1n(C)c(=O)n2C (stereo not drawn) ; what DC50 value has been reported?
# output > 1000 nM

# input Now consider Cn1c(=O)n(C)c2c(N3CCOCC3)nc(-c3cccc4cc(-c5ccc(C(=O)NCC#Cc6ccc7occ(C8CCC(=O)NC8=O)c7c6)nc5)ncc34)cc21 (stereo not drawn) .
# output > 1000 nM

# input Same thing, different compound: Cc1cc(-c2ncc3c(n2)CCCN3c2nc(N3CCOCC3)cc3c2cc(C)c(=O)n3C)cnc1C(=O)NCC#Cc1ccc2occ(C3CCC(=O)NC3=O)c2c1 (stereo not drawn)
# output > 1000 nM

# input Then Cc1cc2c(-c3cccc4cc(-c5ccc(C(=O)NCC#Cc6ccc7occ(C8CCC(=O)NC8=O)c7c6)nc5)ncc34)nc(N3CC(O)C3)cc2n(C)c1=O (stereo not drawn) ?
# output > 1000 nM

# input // next record Cc1cc(-c2ncc3c(n2)OCCN3c2cc(C)c3c(c2)n(C)c(=O)n3C)cnc1C(=O)NCC#Cc1ccc2occ(C3CCC(=O)NC3=O)c2c1 (stereo not drawn)
# output > 1000 nM

# input Proceed to Cc1cc2c(N3CCCc4nc(-c5ccc(C(=O)NCC#Cc6cc7c([C@H]8CCC(=O)NC8=O)cccc7o6)nc5)ncc43)cc(C3CCOCC3)nc2n(C)c1=O
# output 100 to 999 nM

# input Also, CCc1cc(-c2cccc3cc(-c4ccc(C(=O)NCC#Cc5ccc6cnn(C7CCC(=O)NC7=O)c6c5)nc4)ncc23)c2cc(C)c(=O)n(C)c2c1 (stereo not drawn) please.
# output > 1000 nM
